Reference source for all entries: ChEMBL document CHEMBL5335803

- System: Dengue virus
- Experiment notes: Antiviral activity against DENV infected in human Huh-7 cells assessed as percent of infected cells at 50 uM incubated for 72 hrs by flow cytometry relative to control
- Assay type: functional
Listed here are compounds together with their documented Activity.
Field: numeric (%). Do not append units.

Would you please look over these solved cases?
Smiles data: COc1ccc(/N=N/Nc2ccncc2)cc1
Value unit: %
Activity: 22
//
Smiles data: c1cncc(/N=N/N2CCCc3ccccc32)c1
Value unit: %
Activity: 22
//
Smiles data: COc1ccc(/N=N/n2ccnc2)cc1
Value unit: %
Activity: 22
//
Smiles data: CCN(CC)/N=N/c1ccc(OC)cc1
Value unit: %
Activity: 22

Let us move to another entry and its Activity.
Param request: Activity | system Dengue virus | item `COc1ccc(/N=N/Nc2ncccc2C)cc1`
22
